test: Plasma pharmacokinetics after single dose (C1D1), LC-MS/MS; type: in vivo, human; conditions: human, plasma, oral, 3 mg, cohort Schedule A, 3.0 mg, n = 7, read-out: Effective T1/2, mean (SD) (converted)

- smiles.record: "Cc1nnn(C)c1-c1cnc2c3ccc(C(C)(C)O)cc3n([C@H](c3ccccc3)C3CCOCC3)c2c1"
  half-life [h]: 33.3

* * *

assay: Plasma pharmacokinetics after single dose (C1D1), LC-MS/MS; assay type: in vivo, human; details: human, plasma, oral, 3 mg, cohort Schedule B, 3.0 mg, n = 4, read-out: Tmax, median
property.label: Tmax (h)

- smiles.record: "Cc1nnn(C)c1-c1cnc2c3ccc(C(C)(C)O)cc3n([C@H](c3ccccc3)C3CCOCC3)c2c1"
  experimental.result: 1.03

* * *

test: Plasma pharmacokinetics after multiple doses (cycle 2, steady state), LC-MS/MS; format: in vivo, human; details: human, plasma, oral, 2 mg, multiple dose, steady state; Schedule B (14 days on, 7 days off), 2.0 mg, n = 1; read-out: AUC(0–24), GM (%CV)
property.label: AUC(0-t) (ng·h/mL)

- smiles.record: "Cc1nnn(C)c1-c1cnc2c3ccc(C(C)(C)O)cc3n([C@H](c3ccccc3)C3CCOCC3)c2c1"
  property.label: "AUC(0-t)"
  experimental.result: 3430

* * *

assay: Plasma pharmacokinetics after multiple doses (cycle 2, steady state), LC-MS/MS; assay type: in vivo, human; conditions: human, plasma, oral, 4.5 mg, multiple dose, steady state; Schedule C (7 days on, 14 days off), 4.5 mg, n = 7; read-out: Tmax, median (range)

- smiles.record: "Cc1nnn(C)c1-c1cnc2c3ccc(C(C)(C)O)cc3n([C@H](c3ccccc3)C3CCOCC3)c2c1"
  Tmax: "2 h"

* * *

assay: Plasma pharmacokinetics after multiple doses (cycle 2, steady state), LC-MS/MS; type: in vivo, human; details: human, plasma, oral, 3 mg, multiple dose, steady state; Schedule A (5 days on, 2 days off), 3.0 mg, n = 7; read-out: AUC(0–24), GM (%CV)
property.label: AUC(0-t) (ng·h/mL)

- compound: "Cc1nnn(C)c1-c1cnc2c3ccc(C(C)(C)O)cc3n([C@H](c3ccccc3)C3CCOCC3)c2c1 [BMS-986158]"
  property.label: "AUC(0-t)"
  unit.of.measure: "ng·h/mL"
  experimental.result: 9820

* * *

test: Plasma pharmacokinetics after single dose (C1D1), LC-MS/MS; assay type: in vivo, human; conditions: human, plasma, oral, 2 mg, cohort Schedule A, 2.0 mg, n = 9, read-out: Tmax, median

- compound: "Cc1nnn(C)c1-c1cnc2c3ccc(C(C)(C)O)cc3n([C@H](c3ccccc3)C3CCOCC3)c2c1 [BMS-986158]"
  unit.of.measure: "h"
  Tmax: 2

* * *

assay: Plasma pharmacokinetics after single dose (C1D1), LC-MS/MS; assay type: in vivo, human; conditions: human, plasma, oral, 0.75 mg, cohort Schedule A, 0.75 mg, n = 5, read-out: AUC(0–T), GM (%CV)

- smiles.record: "Cc1nnn(C)c1-c1cnc2c3ccc(C(C)(C)O)cc3n([C@H](c3ccccc3)C3CCOCC3)c2c1"
  AUC(0-t): "2150 ng·h/mL"

* * *

test: Plasma pharmacokinetics after single dose (C1D1), LC-MS/MS; type: in vivo, human; conditions: human, plasma, oral, 2 mg, cohort Schedule B, 2.0 mg, n = 1, read-out: AUC(0–T), GM (%CV)

- smiles.record: "Cc1nnn(C)c1-c1cnc2c3ccc(C(C)(C)O)cc3n([C@H](c3ccccc3)C3CCOCC3)c2c1"
  AUC(0-t) [ng·h/mL]: 5200

Data provenance: paper PMC9454848
